Taken from patent US20220298217A1.

# target-system: T1, Flag-PTHR1-YFP (parathyroid hormone receptor 1) expressed in transfected HEK293T cells (human, UniProt Q03431 27-593)
# T1 sequence (looked up): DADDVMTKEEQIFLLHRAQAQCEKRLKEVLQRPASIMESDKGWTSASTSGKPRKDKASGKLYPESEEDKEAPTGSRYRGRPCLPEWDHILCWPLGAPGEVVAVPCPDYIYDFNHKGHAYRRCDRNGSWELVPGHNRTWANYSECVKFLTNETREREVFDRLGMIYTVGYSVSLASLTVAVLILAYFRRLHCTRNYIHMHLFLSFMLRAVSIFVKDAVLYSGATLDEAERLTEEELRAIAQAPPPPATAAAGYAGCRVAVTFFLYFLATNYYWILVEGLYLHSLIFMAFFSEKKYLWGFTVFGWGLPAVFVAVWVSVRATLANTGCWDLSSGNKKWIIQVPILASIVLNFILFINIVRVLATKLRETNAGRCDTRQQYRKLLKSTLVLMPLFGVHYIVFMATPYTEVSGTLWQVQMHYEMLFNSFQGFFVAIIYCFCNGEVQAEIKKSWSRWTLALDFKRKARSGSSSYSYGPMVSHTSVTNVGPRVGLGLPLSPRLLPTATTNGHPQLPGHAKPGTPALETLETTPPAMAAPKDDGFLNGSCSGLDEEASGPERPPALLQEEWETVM
# procedure-summary: cell-based or functional assay
measured-metric: arrestin 1, plate 13: Emax

binder	measured-metric	measured-result
AVAEIQLMHQRAKWSILEELLKILTALLDEYI [R2-46]	arrestin 1, plate 13: Emax	17.3
AVAEIQLMHQRAKWSLREELEKLLKELLKEYI [R2-44]	arrestin 1, plate 13: Emax	7.41
AVAEIQLMHQRAKWKILEELLKILIDLLKQYI [R2-48]	arrestin 1, plate 13: Emax	15.1
AVAEIQLMHQRAKWELQEIGIAITLRLLARYI [R2-43]	arrestin 1, plate 13: Emax	7.23
AVAEIQLMHQRAKWDVLIELAKLLAELLRRYH [R2-47]	arrestin 1, plate 13: Emax	15.7
AVAEIQLMHQRAKWGLEIELLKLLLSLLKEYI [R2-45]	arrestin 1, plate 13: Emax	20.4
